assaySystem: G9a (Homo sapiens, UniProt Q96KQ7)
protocol: G9a AlphaLISA enzymatic activity assay
Assay type: biochemical
conditionContext: 0.15 nM G9a, 15 uM S-adenosyl-methionine, 100 nM biotinylated histone 3 peptide (1-21), 1 hour at room temperature; read-out: G9a in (uM) (IC50, concentration that produced 50% inhibition)
Structures can show the parent of a compound that is named as a salt.
observable: IC50 (µM)

{"molecule": "COc1cc2c3c(c(NC(C)C)nc2cc1OCC1CCN(C)C1)CCC3 (stereo not shown) [Example 11, trifluoroacetate]", "unitAnnotation": "µM", "reportedMeasurement": 0.27}
{"molecule": "COc1cc2c3c(c(NC(C)C)nc2cc1OCCCN1CCCC1)CC(C)(C)N3 [Example 25, trifluoroacetate]", "unitAnnotation": "µM", "reportedMeasurement": 0.005}

P: COc1cc2c3c(c(C4CCCC4)nc2cc1OCCCN1CCCC1)CCC3 [Example 109, formate]
Q: COc1cc2c3c(c(C)nc2cc1OCCCN1CCCC1)CCC(C)(C)N3
Looking at recorded values for IC50, does P or Q come in lower? Reply briefly: the label of your chosen item.
Q

* * *

assaySystem: G9a (Homo sapiens, UniProt Q96KQ7)
Sequence (Q96KQ7 1-1210): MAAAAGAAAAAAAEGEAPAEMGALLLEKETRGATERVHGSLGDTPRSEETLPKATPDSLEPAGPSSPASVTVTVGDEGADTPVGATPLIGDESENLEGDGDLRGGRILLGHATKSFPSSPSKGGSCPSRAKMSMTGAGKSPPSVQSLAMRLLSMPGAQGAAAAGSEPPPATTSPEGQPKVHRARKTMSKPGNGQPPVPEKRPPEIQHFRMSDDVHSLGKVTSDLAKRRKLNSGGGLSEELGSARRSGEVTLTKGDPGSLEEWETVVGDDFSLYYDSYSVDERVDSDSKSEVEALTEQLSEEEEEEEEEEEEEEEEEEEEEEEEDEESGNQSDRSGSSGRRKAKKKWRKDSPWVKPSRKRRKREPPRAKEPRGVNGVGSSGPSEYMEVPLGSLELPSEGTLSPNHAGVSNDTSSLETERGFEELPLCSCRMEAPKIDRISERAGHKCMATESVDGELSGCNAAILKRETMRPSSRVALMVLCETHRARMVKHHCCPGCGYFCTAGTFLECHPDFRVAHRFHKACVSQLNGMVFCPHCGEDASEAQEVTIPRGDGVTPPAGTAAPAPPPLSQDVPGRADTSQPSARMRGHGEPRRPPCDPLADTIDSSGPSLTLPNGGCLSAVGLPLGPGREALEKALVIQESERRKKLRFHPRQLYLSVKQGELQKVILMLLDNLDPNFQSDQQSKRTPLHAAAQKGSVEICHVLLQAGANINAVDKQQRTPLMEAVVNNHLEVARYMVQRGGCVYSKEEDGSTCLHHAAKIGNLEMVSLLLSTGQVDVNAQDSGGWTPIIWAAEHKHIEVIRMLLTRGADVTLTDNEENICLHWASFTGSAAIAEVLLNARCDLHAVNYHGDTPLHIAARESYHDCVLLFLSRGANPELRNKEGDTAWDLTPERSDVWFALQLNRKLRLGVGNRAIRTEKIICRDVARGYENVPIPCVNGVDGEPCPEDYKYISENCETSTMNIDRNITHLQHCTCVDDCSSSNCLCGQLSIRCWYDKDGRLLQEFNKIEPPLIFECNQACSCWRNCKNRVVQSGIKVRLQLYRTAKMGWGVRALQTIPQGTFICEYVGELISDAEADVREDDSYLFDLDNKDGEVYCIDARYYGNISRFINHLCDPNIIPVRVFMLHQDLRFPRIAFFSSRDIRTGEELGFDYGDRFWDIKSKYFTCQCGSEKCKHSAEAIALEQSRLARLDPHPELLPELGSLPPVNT
protocol: G9a AlphaLISA enzymatic activity assay
Type: biochemical
conditionContext: 0.15 nM G9a, 15 uM S-adenosyl-methionine, 100 nM biotinylated histone 3 peptide (1-21), 1 hour at room temperature; read-out: G9a in (uM) (IC50, concentration that produced 50% inhibition)
Where a name gives a salt, the structure may show the parent alone.
observable: IC50 (µM)

{"compound": "COc1cc2c3c(c(C4CC4)nc2cc1OCCCN1CCCC1)CCC(C)N3 (stereo not shown) [Example 32, trifluoroacetate]", "assaySystem": "G9a (Homo sapiens, UniProt Q96KQ7)", "observable": "IC50", "unitAnnotation": "µM", "reportedMeasurement": 0.022}

a: COc1cc2c3c(c(NCCO)nc2cc1OCCCN1CCCC1)CCC3 [Example 4, trifluoroacetate]
b: COc1cc2c3c(c(NCC(F)(F)F)nc2cc1OCCCN1CCCC1)CCCC3 [Example 67, formate]
c: COc1cc2c3c(cnc2cc1OCCCN1CCCC1)CCCC3 [Example 40, trifluoroacetate]
hey, can you rank those compounds up there by IC50? biggest number first please Respond with an ordered listing of the labels, as requested.
b, c, a
